- System: P388 leukemia ip, CD2F1 mice, survival T/C
- MEASUREMENT PROTOCOL: NCI In Vivo Anticancer Drug Screen. Data for tumor model P388 Leukemia (intraperitoneal) in CD2F1 (CDF1) mice
- COND: endpoint: median survival time; dose: 6.25 mg/kg/injection; schedule: Q01DX009 (ip); vehicle: saline; higher = longer survival
Inconclusive results and toxic doses are left out.
REPORTED PROPERTY: T/C

Sample records with T/C:
COMPOUND | SUBJECT OF TEST | T/C
Nc1cccnc1N | P388 leukemia ip, CD2F1 mice, survival T/C | 106 % of control
CO[n+]1ccccc1Cc1ccccc1 | P388 leukemia ip, CD2F1 mice, survival T/C | 118 % of control

q: Give the value of T/C reported for the following: CCC(C)NCCNCCNC(C)CC (stereo not drawn)
a: 100 % of control

----------
- Test system: P388 leukemia ip, CD2F1 mice, survival T/C
- MEASUREMENT PROTOCOL: NCI In Vivo Anticancer Drug Screen. Data for tumor model P388 Leukemia (intraperitoneal) in CD2F1 (CDF1) mice
- COND: endpoint: median survival time; dose: 25.0 mg/kg/injection; schedule: Q01DX005 (ip); vehicle: saline with Tween-80; higher = longer survival
Toxic doses and inconclusive results are not listed.
REPORTED PROPERTY: T/C

q: Give T/C for the following compound: `CC(C)(C)/C=C/N1CCN=N1`
a: 104 % of control

q: For `COc1ccc2c(c1OC)C(=C(Cl)Cl)N1CCc3cc4c(cc3C1=C2C=O)OCO4` , write its T/C.
a: 92 % of control

q: Output measured T/C for this item: `C[C@@H](O)[C@H](NSc1ccccc1[N+](=O)[O-])C(=O)NCCc1nc(-c2nc(C(=O)NCCCBr)cs2)cs1`
a: 90 % of control

q: Please report the measured T/C for `Cn1c(-c2ccc(Br)cc2)cc2[nH]c(=S)nc(N)c2c1=O`
a: 105 % of control

----------
Overview of recorded T/C for various molecules
- System: P388 leukemia ip, CD2F1 mice, survival T/C
- MEASUREMENT PROTOCOL: NCI In Vivo Anticancer Drug Screen. Data for tumor model P388 Leukemia (intraperitoneal) in CD2F1 (CDF1) mice
- COND: endpoint: median survival time; dose: 400.0 mg/kg/injection; schedule: Q04DX002 (ip); vehicle: saline with Tween-80; higher = longer survival
Toxic doses and inconclusive results are not listed.

Example entries and their recorded answers appear below.
MOLECULE | T/C
O=C1c2ccccc2C(=O)N1/N=C/c1cccc(Cl)c1 | 89 % of control
CCCN1C(=O)C(C)N(S(=O)(=O)c2ccc(-n3nc(C)cc3C)cc2)C1=S (stereo unspecified) | 100 % of control
CC(=O)OB(OC(C)=O)O[B-]12Oc3ccccc3C=[N+]1c1ccccc1S2 (stereo unspecified) | 92 % of control

q: Return T/C (reported value) for this molecule: `Cn1c2ccccc2c2nnc(N/N=C/c3ccc(Cl)cc3)nc21`
a: 98 % of control

q: Fill in T/C for record COc1ccc(SS(=O)c2ccc(OC)cc2)cc1 (stereo unspecified)
a: 102 % of control

q: # return recorded T/C for entry C1=CC2C1C1OC1C1OC21 (stereo unspecified)
a: 101 % of control

q: Tell me measured T/C for `Cc1ccc(N=c2scc(-c3ccccc3)n2-c2ccccc2)cc1` please.
a: 95 % of control

q: Please list T/C recorded for the molecule `O=C(O)c1cccc(C(=O)O)c1Sc1ccc(Cl)cc1`
a: 100 % of control

q: Output T/C of `C=Cn1c([N+](=O)[O-])cnc1/C=C/c1ccc(C(=O)N(CCCC)CCCC)cc1`
a: 89 % of control

q: Give recorded T/C. Nc1ncnc2c1ncn2C1OC(CO)C(N)C1O (stereo unspecified)
a: 105 % of control

q: Hello, please tell me recorded T/C for this one: O=S1(=O)c2ccccc2C(N2CCCCC2)C1CCCCC1C(N2CCCCC2)c2ccccc2S1(=O)=O (stereo unspecified)
a: 99 % of control
